EXPERIMENT_SUMMARY: F508del CFTR correction, initial screen, CFBE line, single point (AID 720511);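 note: cells transiently co-express mutant CFTR-F508del with the halide-sensitive YFP; corrector assay measuring rescue of mutant channel to the surface after 24 h compound exposure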
PROTOCOL_CONDITIONS: CFBE cells, YFP halide quenching, at 7.58 µM, hits give high values, % fluorescence drop versus neutral controls, stimulated with forskolin plus potentiator P3
Among all 350,000 compounds or so, about 1,300 (0.37%) were called active. Shown is part of a subset that was picked to be rich in actives.
OBSERVED_PROPERTY: activity (quench increase) (%)
# number only, unit % dropped from output

COMPOUND: Cc1ccc(S(=O)(=O)Nc2ccc3c(c2)C(=O)N([C@H](C)CO)C[C@@H](C)[C@H](CN(C)C(=O)Nc2ccc(C(F)(F)F)cc2)OCCCC[C@H](C)O3)cc1
activity (quench increase) (%): -0.228
//
COMPOUND: C[C@@H](O)C#Cc1ccc([C@@H]2[C@H]3CN(S(=O)(=O)c4ccccc4)CCCCN3[C@H]2CO)cc1
activity (quench increase) (%): 1.07
//
COMPOUND: O=C(Cn1c(NCCO)nc2ccccc21)c1ccc(Cl)cc1Cl
activity (quench increase) (%): 1.26

[Q] Return reported activity (quench increase); argument: `CC(C)NC(=O)Nc1ccc2c(c1)C(=O)N([C@H](C)CO)C[C@H](C)[C@H](CN(C)C(=O)CCC(F)(F)F)OCCCC[C@H](C)O2`
[A] 0.243

[Q] Return reported activity (quench increase); argument: `COc1ccc(S(=O)(=O)Nc2ccc3c(c2)C(=O)N([C@@H](C)CO)C[C@@H](C)[C@H](CN(C)C(=O)Nc2ccc(C(F)(F)F)cc2)OCCCC[C@@H](C)O3)cc1`
[A] -1.09

----------
EXPERIMENT_SUMMARY: F508del CFTR correction, initial screen, CFBE line, single point (AID 720511);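 note: cells transiently co-express mutant CFTR-F508del with the halide-sensitive YFP; corrector assay measuring rescue of mutant channel to the surface after 24 h compound exposure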
PROTOCOL_CONDITIONS: CFBE cells, YFP halide quenching, at 7.58 µM, hits give high values, % fluorescence drop versus neutral controls, stimulated with forskolin plus potentiator P3
Out of some 350,000 compounds screened, about 1,300 (0.37%) were called active. Many of the other results were omitted from the sample, so actives are more common in it than they were.
OBSERVED_PROPERTY: activity (quench increase)

Examples with answers:
MOLECULE: O=C(NCCC1CCCCN1S(=O)(=O)c1ccc(F)cc1)C(=O)NC1CC1 (centres undefined)
OBSERVED_PROPERTY: activity (quench increase)
VALUE_OBSERVED: 3.1% (inactive)

MOLECULE: Cc1cccc(CNS(=O)(=O)c2ccc(-c3cnc(C4CC4)o3)cc2)c1
OBSERVED_PROPERTY: activity (quench increase)
VALUE_OBSERVED: 2.12% (inactive)

MOLECULE: CC(=O)N(C)C[C@H]1Oc2ncc(C#Cc3ccccn3)cc2C(=O)N([C@H](C)CO)C[C@@H]1C
OBSERVED_PROPERTY: activity (quench increase)
VALUE_OBSERVED: 0.118% (inactive)

MOLECULE: COc1ccc(CNS(=O)(=O)c2ccc(-c3cnc(C4CC4)o3)cc2)cc1
OBSERVED_PROPERTY: activity (quench increase)
VALUE_OBSERVED: -1.13% (inactive)

MOLECULE: O=C(C[C@@H]1C=C[C@@H](NS(=O)(=O)c2ccccc2)[C@@H](CO)O1)NCc1ccccc1F
OBSERVED_PROPERTY: activity (quench increase)
VALUE_OBSERVED: -1.3% (inactive)

[Q] Return reported activity (quench increase); argument: `O=C(Nc1ccc(OC(F)(F)F)cc1)c1ccc2c(c1)no[n+]2[O-]`
[A] 14.5% (active)

[Q] Return reported activity (quench increase); argument: `Cc1ccc(S(=O)(=O)Nc2ccc3c(c2)C(=O)N([C@@H](C)CO)C[C@@H](C)[C@H](CN(C)C(=O)NC(C)C)OCCCC[C@H](C)O3)cc1`
[A] -0.752% (inactive)

[Q] Return reported activity (quench increase); argument: S=c1[nH]nc(-c2ccc(Cl)cc2)n1CC1CCCO1 (centres undefined)
[A] -0.339% (inactive)

[Q] Return reported activity (quench increase); argument: `CO[C@@H]1CN(C)C(=O)c2ccc(NS(=O)(=O)c3cccc(Cl)c3)cc2OC[C@H](C)NC[C@H]1C`
[A] -1.91% (inactive)

[Q] Return reported activity (quench increase); argument: `COc1cccc(-c2cnc3c(NC(C)=O)cc(-c4cccc(NC(C)=O)c4)cn23)c1`
[A] -0.356% (inactive)
